system: NCI-H1092 (Small Cell Lung Carcinoma); assay: Bliss excess, mean over the matrix (fraction); higher = more synergy
Binary call on Bliss excess: criterion met from -0.009 upward, criterion not met beneath that.

Completed entries (count: 2):
compound | tgt | group-label
NC1(C(=O)N[C@@H](CCO)c2ccc(Cl)cc2)CCN(c2ncnc3[nH]ccc23)CC1 [Capivasertib] + COc1nnc2ccc(N3CCC(c4ccc(OCCN5CCN(C)C(=O)[C@H]5C)cc4)CC3)nn12 [AZD5153] (first compound max 10 µM, 7x7, partner max 1 µM) | NCI-H1092 (Small Cell Lung Carcinoma) | criterion met
C[C@@H]1COCCN1c1cc(C2([S@](C)(=N)=O)CC2)nc(-c2ccnc3[nH]ccc23)n1 [AZD6738] + O=C(c1cc(Cc2n[nH]c(=O)c3ccccc23)ccc1F)N1CCN(C(=O)C2CC2)CC1 [Olaparib] (first compound max 10 µM, 7x7, partner max 10 µM) | NCI-H1092 (Small Cell Lung Carcinoma) | criterion not met

Prompt line: Entry CN(C)CCCOc1ccc(-c2ccc3ncc4c(c3c2)n(C2CCOCC2)c(=O)n4C)cn1 [AZD0156] + O=C(c1cc(Cc2n[nH]c(=O)c3ccccc23)ccc1F)N1CCN(C(=O)C2CC2)CC1 [Olaparib] (first compound max 3 µM, partner max 3 µM) : is its Bliss excess no less than -0.009?
Response line: criterion met

Prompt line: Entry CC(=O)c1c(C)c2cnc(Nc3ccc(N4CCNCC4)cn3)nc2n(C2CCCC2)c1=O [Palbociclib] + CC1(C)CCC(CN2CCN(c3ccc(C(=O)NS(=O)(=O)c4ccc(NCC5CCOCC5)c([N+](=O)[O-])c4)c(Oc4cnc5[nH]ccc5c4)c3)CC2)=C(c2ccc(Cl)cc2)C1 [Venetoclax] (first compound max 10 µM, 7x7, partner max 1 µM) : is its Bliss excess no less than -0.009?
Response line: criterion not met

Prompt line: Entry COc1nnc2ccc(N3CCC(c4ccc(OCCN5CCN(C)C(=O)[C@H]5C)cc4)CC3)nn12 [AZD5153] + CCN(CCO)CCCOc1ccc2c(Nc3cc(CC(=O)Nc4cccc(F)c4)[nH]n3)ncnc2c1 [AZD2811] (first compound max 1 µM, 7x7, partner max 1 µM) : is its Bliss excess no less than -0.009?
Response line: criterion met

Prompt line: Entry COc1nnc2ccc(N3CCC(c4ccc(OCCN5CCN(C)C(=O)[C@H]5C)cc4)CC3)nn12 [AZD5153] + CC1(C)CCC(CN2CCN(c3ccc(C(=O)NS(=O)(=O)c4ccc(NCC5CCOCC5)c([N+](=O)[O-])c4)c(Oc4cnc5[nH]ccc5c4)c3)CC2)=C(c2ccc(Cl)cc2)C1 [Venetoclax] (first compound max 1 µM, 7x7, partner max 1 µM) : is its Bliss excess no less than -0.009?
Response line: criterion met

Prompt line: Entry Cc1cc2ncnn2cc1Nc1ncc2c(n1)n(C1CCOCC1)c(=O)n2C [AZD7648] + CCN(CCO)CCCOc1ccc2c(Nc3cc(CC(=O)Nc4cccc(F)c4)[nH]n3)ncnc2c1 [AZD2811] (first compound max 10 µM, 7x7, partner max 1 µM) : is its Bliss excess no less than -0.009?
Response line: criterion met

###

test system: SK-N-AS (Neuroblastoma); assay: combination Emax (second highest fraction inhibited in the dose matrix, 72 h); higher = more inhibition; extreme values may be limits of the assay
compounds and their reported combination Emax
Respond using a number only.

Some compounds with known combination Emax results, for comparison:
compound | combination Emax
CN(CCO)CC[C@H](CSc1ccccc1)Nc1ccc(S(=O)(=O)NC(=O)c2ccc(N3CCC([C@@H](O)c4ccccc4-c4ccc(Cl)cc4)CC3)cc2)cc1S(=O)(=O)C(F)(F)F [AZD4320] + C[C@@H]1COCCN1C2=NC(=NC(=C2)C3(CC3)[S@](=N)(=O)C)C4=C5C=CNC5=NC=C4 [AZD6738] (first compound max 1 µM, 7x7, partner max 10 µM) | 0.949
CC(=O)Nc1cccc(-n2c(=O)n(C3CC3)c(=O)c3c(Nc4ccc(I)cc4F)n(C)c(=O)c(C)c32)c1 [Trametinib] + Cc1nc(-c2cn3c(n2)-c2ccc(-c4cnn(C(C)(C)C(N)=O)c4)cc2OCC3)n(C(C)C)n1 [Taselisib] (first compound max 1 µM, 7x7, partner max 10 µM) | 0.73

Prompt line: What does the data say about its combination Emax? Entry: CCN(CCO)CCCOc1ccc2c(Nc3cc(CC(=O)Nc4cccc(F)c4)[nH]n3)ncnc2c1 [AZD2811] + O=C(c1cc(Cc2n[nH]c(=O)c3ccccc23)ccc1F)N1CCN(C(=O)C2CC2)CC1 [Olaparib] (first compound max 1 µM, 7x7, partner max 10 µM)
Response line: 0.249

###

molecules and their reported combination Emax
system: HCC1500 (Breast Carcinoma); assay: combination Emax (second highest fraction inhibited in the dose matrix, 72 h); higher = more inhibition; extreme values may be limits of the assay
Respond using a number only.

Prompt line: What does the data say about its combination Emax? Entry: CS(=O)(=O)CCNCc1ccc(-c2ccc3ncnc(Nc4ccc(OCc5cccc(F)c5)c(Cl)c4)c3c2)o1 [Lapatinib] + NC1(c2ccc(-c3nc4ccn5c(=O)[nH]nc5c4cc3-c3ccccc3)cc2)CCC1 [MK-2206] (first compound max 10 µM, 7x7, partner max 10 µM)
Response line: 0.901

Prompt line: What does the data say about its combination Emax? Entry: CC1(C)CCC(CN2CCN(c3ccc(C(=O)NS(=O)(=O)c4ccc(NCC5CCOCC5)c([N+](=O)[O-])c4)c(Oc4cnc5[nH]ccc5c4)c3)CC2)=C(c2ccc(Cl)cc2)C1 [Venetoclax] + CN(C)CCCOc1ccc(-c2ccc3ncc4c(c3c2)n(C2CCOCC2)c(=O)n4C)cn1 [AZD0156] (first compound max 1 µM, 7x7, partner max 1 µM)
Response line: 0.864

Prompt line: What does the data say about its combination Emax? Entry: COc1nnc2ccc(N3CCC(c4ccc(OCCN5CCN(C)C(=O)[C@H]5C)cc4)CC3)nn12 [AZD5153] + Cc1c2c(nn1C)CSCc1cc(n(C)n1)CSc1cc(c3ccccc3c1)OCCCc1c(C(=O)O)n(C)c3c-2c(Cl)ccc13 [AZD5991] (first compound max 1 µM, 7x7, partner max 1 µM)
Response line: 0.696

Prompt line: What does the data say about its combination Emax? Entry: CN(C)CCCOc1ccc(-c2ccc3ncc4c(c3c2)n(C2CCOCC2)c(=O)n4C)cn1 [AZD0156] + C[C@@H]1COCCN1C2=NC(=NC(=C2)C3(CC3)[S@](=N)(=O)C)C4=C5C=CNC5=NC=C4 [AZD6738] (first compound max 1 µM, 7x7, partner max 10 µM)
Response line: 0.298

###

molecules and their reported combination Emax
tested on: EFO-21 (Ovarian Carcinoma); experiment: combination Emax (second highest fraction inhibited in the dose matrix, 72 h); higher = more inhibition; extreme values may be limits of the assay
Respond using a number only.

molecule | combination Emax
N#Cc1cnc(Nc2cc(NC[C@H]3CNCCO3)c(C(F)(F)F)cn2)cn1 [SRA737] + C=CCn1c(=O)c2cnc(Nc3ccc(N4CCN(C)CC4)cc3)nc2n1-c1cccc(C(C)(C)O)n1 [AZD1775] (first compound max 10 µM, partner max 1 µM) | 0.431

Continue with the molecule presented below.
Prompt line: What does the data say about its combination Emax? Entry: N#Cc1cnc(Nc2cc(NC[C@H]3CNCCO3)c(C(F)(F)F)cn2)cn1 [SRA737] + CCc1c2c(nc3ccc(O)cc13)-c1cc3c(c(=O)n1C2)COC(=O)[C@]3(O)CC [SN-38] (first compound max 10 µM, 7x7, partner max 0.3 µM)
Response line: 0.541

###

system: EJM (Plasma Cell Myeloma); assay: Bliss excess, mean over the matrix (fraction); higher = more synergy
reported-endpoint: Bliss excess
Respond using a number only.

Some compounds with known Bliss excess results, for comparison:
compound | Bliss excess
COc1cccc2c1C(=O)c1c(O)c3c(c(O)c1C2=O)C[C@@](O)(C(=O)CO)C[C@@H]3O[C@H]1C[C@H](N)[C@H](O)[C@H](C)O1 [Doxorubicin] + Cc1cc2ncnn2cc1Nc1ncc2c(n1)n(C1CCOCC1)c(=O)n2C [AZD7648] (first compound max 1 µM, 7x7, partner max 10 µM) | 0.0833
Cn1cnc2c(F)c(Nc3ccc(Br)cc3Cl)c(C(=O)NOCCO)cc21 [Selumetinib] + CCN(CCO)CCCOc1ccc2c(Nc3cc(CC(=O)Nc4cccc(F)c4)[nH]n3)ncnc2c1 [AZD2811] (first compound max 10 µM, 7x7, partner max 1 µM) | 0.0145
CN(CCO)CC[C@H](CSc1ccccc1)Nc1ccc(S(=O)(=O)NC(=O)c2ccc(N3CCC([C@@H](O)c4ccccc4-c4ccc(Cl)cc4)CC3)cc2)cc1S(=O)(=O)C(F)(F)F [AZD4320] + CCN(CCO)CCCOc1ccc2c(Nc3cc(CC(=O)Nc4cccc(F)c4)[nH]n3)ncnc2c1 [AZD2811] (first compound max 1 µM, 7x7, partner max 1 µM) | 0.0454
CCN(CCO)CCCOc1ccc2c(Nc3cc(CC(=O)Nc4cccc(F)c4)[nH]n3)ncnc2c1 [AZD2811] + O=C(c1cc(Cc2n[nH]c(=O)c3ccccc23)ccc1F)N1CCN(C(=O)C2CC2)CC1 [Olaparib] (first compound max 1 µM, 7x7, partner max 10 µM) | 0.0335
CN(C)CCCOc1ccc(-c2ccc3ncc4c(c3c2)n(C2CCOCC2)c(=O)n4C)cn1 [AZD0156] + C[C@@H]1COCCN1C2=NC(=NC(=C2)C3(CC3)[S@](=N)(=O)C)C4=C5C=CNC5=NC=C4 [AZD6738] (first compound max 1 µM, 7x7, partner max 10 µM) | 0.0266
Cc1c2c(nn1C)CSCc1cc(n(C)n1)CSc1cc(c3ccccc3c1)OCCCc1c(C(=O)O)n(C)c3c-2c(Cl)ccc13 [AZD5991] + C1CN(CCC1(C(=O)N[C@@H](CCO)C2=CC=C(C=C2)Cl)N)C3=NC=NC4=C3C=CN4 [Capivasertib] (first compound max 1 µM, 7x7, partner max 3 µM) | 0.0504

Continue with the compound presented below.
Prompt line: Tell me reported Bliss excess for Cc1nc(Nc2ncc(C(=O)Nc3c(C)cccc3Cl)s2)cc(N2CCN(CCO)CC2)n1 [Dasatinib] + CC(=O)Nc1cccc(-n2c(=O)n(C3CC3)c(=O)c3c(Nc4ccc(I)cc4F)n(C)c(=O)c(C)c32)c1 [Trametinib] (first compound max 2 µM, 7x7, partner max 1 µM) , tested with EJM (Plasma Cell Myeloma).
Response line: -0.0342
